# test.system: UniProtKB Q13535
# Sequence (Q13535 whole entry): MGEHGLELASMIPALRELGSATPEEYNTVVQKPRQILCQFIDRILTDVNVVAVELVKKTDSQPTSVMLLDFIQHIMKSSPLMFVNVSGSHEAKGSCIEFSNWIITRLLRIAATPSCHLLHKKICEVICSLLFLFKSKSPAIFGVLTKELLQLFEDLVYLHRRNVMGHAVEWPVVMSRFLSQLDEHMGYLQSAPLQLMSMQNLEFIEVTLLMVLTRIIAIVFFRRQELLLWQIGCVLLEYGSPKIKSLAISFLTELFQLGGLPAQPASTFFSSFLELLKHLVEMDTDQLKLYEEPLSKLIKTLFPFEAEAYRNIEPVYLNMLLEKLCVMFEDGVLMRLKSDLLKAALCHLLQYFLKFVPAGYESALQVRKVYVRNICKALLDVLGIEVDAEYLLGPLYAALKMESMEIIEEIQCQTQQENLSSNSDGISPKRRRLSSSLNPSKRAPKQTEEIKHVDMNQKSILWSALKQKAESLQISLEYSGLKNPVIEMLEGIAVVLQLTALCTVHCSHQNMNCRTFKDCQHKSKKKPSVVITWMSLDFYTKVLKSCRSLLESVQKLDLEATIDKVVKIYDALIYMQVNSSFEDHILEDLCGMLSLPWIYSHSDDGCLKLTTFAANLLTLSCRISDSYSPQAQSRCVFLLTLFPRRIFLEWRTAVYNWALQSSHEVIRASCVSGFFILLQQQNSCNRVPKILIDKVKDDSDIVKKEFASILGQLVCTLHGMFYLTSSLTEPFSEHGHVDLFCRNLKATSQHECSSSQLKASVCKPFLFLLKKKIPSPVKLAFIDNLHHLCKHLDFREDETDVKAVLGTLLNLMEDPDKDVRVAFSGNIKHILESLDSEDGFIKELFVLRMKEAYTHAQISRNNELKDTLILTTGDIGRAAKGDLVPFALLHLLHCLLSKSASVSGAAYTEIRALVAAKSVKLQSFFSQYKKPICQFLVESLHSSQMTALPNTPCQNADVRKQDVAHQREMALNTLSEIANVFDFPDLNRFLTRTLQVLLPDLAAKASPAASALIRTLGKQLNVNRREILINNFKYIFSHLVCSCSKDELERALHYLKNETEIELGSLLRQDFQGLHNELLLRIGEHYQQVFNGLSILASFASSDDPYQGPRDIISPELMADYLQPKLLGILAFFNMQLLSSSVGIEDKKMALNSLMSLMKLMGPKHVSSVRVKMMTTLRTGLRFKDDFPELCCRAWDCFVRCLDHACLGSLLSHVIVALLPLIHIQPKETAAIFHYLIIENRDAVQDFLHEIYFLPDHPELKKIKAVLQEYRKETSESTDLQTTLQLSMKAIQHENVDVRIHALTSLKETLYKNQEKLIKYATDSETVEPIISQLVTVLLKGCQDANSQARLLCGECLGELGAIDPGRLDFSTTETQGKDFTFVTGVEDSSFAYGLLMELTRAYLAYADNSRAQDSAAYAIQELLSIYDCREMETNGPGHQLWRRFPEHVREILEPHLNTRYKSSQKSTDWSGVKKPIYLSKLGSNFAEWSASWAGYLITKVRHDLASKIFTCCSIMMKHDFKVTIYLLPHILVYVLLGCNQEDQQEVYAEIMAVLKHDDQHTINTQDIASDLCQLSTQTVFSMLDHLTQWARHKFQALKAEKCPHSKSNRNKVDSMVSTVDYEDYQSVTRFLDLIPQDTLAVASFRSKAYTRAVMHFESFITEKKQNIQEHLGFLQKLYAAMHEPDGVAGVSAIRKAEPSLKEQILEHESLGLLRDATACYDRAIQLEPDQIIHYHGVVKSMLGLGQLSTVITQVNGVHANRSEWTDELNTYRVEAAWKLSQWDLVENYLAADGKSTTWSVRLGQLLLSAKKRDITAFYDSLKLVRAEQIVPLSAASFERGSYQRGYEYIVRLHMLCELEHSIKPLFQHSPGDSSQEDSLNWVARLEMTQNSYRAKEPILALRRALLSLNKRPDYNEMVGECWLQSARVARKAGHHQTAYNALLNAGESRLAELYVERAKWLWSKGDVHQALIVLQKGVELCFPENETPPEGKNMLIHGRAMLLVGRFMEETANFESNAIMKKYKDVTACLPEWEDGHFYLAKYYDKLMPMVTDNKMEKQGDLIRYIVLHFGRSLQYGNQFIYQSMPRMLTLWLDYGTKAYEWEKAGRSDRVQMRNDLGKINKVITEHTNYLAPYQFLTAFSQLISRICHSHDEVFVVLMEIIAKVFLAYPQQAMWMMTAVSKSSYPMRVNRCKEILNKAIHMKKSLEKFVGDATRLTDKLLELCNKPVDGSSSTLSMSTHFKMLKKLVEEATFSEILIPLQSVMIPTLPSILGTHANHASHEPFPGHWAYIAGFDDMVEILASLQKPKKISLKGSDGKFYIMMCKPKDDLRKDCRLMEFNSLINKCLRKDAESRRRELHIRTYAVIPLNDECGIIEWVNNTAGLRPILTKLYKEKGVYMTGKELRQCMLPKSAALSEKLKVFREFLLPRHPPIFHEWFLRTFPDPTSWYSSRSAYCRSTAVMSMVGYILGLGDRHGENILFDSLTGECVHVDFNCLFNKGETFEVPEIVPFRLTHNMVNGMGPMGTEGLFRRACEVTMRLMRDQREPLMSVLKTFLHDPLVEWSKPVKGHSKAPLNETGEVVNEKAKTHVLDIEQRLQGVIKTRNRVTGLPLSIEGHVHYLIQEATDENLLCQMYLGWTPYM
# Sequence (Q8WXE1 whole entry partner): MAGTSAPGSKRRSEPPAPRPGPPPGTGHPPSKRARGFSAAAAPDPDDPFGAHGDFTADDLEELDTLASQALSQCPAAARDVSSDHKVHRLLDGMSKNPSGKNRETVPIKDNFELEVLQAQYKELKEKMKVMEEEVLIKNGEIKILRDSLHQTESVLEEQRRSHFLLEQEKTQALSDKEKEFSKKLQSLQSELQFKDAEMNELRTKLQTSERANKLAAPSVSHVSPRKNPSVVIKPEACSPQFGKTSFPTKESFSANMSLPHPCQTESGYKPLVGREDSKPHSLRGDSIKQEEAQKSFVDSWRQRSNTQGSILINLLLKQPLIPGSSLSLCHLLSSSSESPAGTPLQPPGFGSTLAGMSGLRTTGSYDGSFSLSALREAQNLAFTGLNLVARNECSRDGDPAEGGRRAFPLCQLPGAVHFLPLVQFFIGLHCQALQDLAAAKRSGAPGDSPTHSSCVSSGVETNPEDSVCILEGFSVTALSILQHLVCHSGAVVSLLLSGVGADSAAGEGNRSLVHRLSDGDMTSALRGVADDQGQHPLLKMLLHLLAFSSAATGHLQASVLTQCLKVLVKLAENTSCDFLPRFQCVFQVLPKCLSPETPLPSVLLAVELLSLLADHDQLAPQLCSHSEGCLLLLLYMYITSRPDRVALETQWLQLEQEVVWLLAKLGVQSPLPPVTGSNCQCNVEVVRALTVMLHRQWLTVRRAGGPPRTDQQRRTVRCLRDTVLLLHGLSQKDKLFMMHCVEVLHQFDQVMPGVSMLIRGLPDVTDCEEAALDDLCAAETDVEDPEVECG
# method.summary: Cellular Assay - ATR, phosphorylation of Chk1 (Ser 345) in HT29 cells after 4NQO (Test (b))
# Type: cell-based
# cond: cell assay Test (b); pChk1 Ser345 in HT29 cells, 3 μM 4NQO; arithmetic mean
pIC50: −log10 of the molar value.
value.type: pIC50

Use the examples below as a reference point.
smiles.data	pIC50
CNc1nc2ccc(F)cc2n1-c1nc(N2CCOC[C@H]2C)cc(C2([S@@](C)(=N)=O)CC2)n1	7.33
C[C@@H]1COCCN1c1cc(C2([S@@](C)(=N)=O)CCOCC2)nc(-c2cccc3[nH]ccc23)n1	7.29
CNc1nc2ccccc2n1-c1nc(N2CCOC[C@H]2C)cc(C2([S@](C)(=N)=O)CCOCC2)n1	7.40
CNc1nc2c(F)cccc2n1-c1nc(N2CCOC[C@H]2C)cc(C(C)(C)[S@@](C)(=N)=O)n1	7.20
CNc1nc2cc(F)ccc2n1-c1nc(N2CCOC[C@H]2C)cc(C2([S@](C)(=N)=O)CC2)n1	8.00
C[C@@H]1COCCN1c1cc(C2([S@](C)(=N)=O)CC2)nc(-n2c(N)nc3ccccc32)n1	8.59

1: CNc1nc2ccccc2n1-c1nc(N2CCOC[C@H]2C)cc(C2([S@@](C)(=N)=O)CCOCC2)n1
2: CNc1nc2c(F)cccc2n1-c1nc(N2CCOC[C@H]2C)cc(C2([S@](C)(=N)=O)CC2)n1
Query string: Determine, for 1 and 2 , which has the greater value of pIC50. Mark your selection by writing its label.
Result string: 1

The measurements presented in this section are drawn from patent US8552004B2.
